# PROTOCOL_DETAILS: Stability of the compound in 0.01 N HCL at pH 2.0 assessed as half-life
# Type: physicochemical
METRIC: half-life (days)
Report only the number, with the unit days understood.

C[C@H]1[C@@H](O[C@H](CCC(=O)O)c2ccc(Cl)cc2)O[C@@H]2O[C@@]3(C)CC[C@H]4[C@H](C)CC[C@@H]1[C@@]24OO3	0.542
C[C@@H]1CC[C@H]2[C@@H](C)CO[C@@H]3O[C@@]4(C)CC[C@@H]1[C@]32OO4	6.88
C[C@H]1[C@@H](CCCCC(=O)O)O[C@@H]2O[C@@]3(C)CC[C@H]4[C@H](C)CC[C@@H]1[C@@]24OO3	6.88
C[C@@H]1CC[C@H]2[C@@H](C)C(=O)O[C@@H]3O[C@@]4(C)CC[C@@H]1[C@]32OO4	1
CCCC[C@H]1O[C@@H]2O[C@@]3(C)CC[C@H]4[C@H](C)CC[C@@H]([C@H]1C)[C@@]24OO3	6.88

[in] Requested field: half-life. Item: `C[C@H]1[C@@H](Cc2ccccc2)O[C@@H]2O[C@@]3(C)CC[C@H]4[C@H](C)CC[C@@H]1[C@@]24OO3`
[out] 6.88

[in] Let us now turn to `C[C@H]1[C@@H](O)O[C@@H]2O[C@@]3(C)CC[C@H]4[C@H](C)CC[C@@H]1[C@@]24OO3`
[out] 0.708
